Recorded log10 of EC50 for the following compounds
- assayed target: Integrin alpha-4 (Homo sapiens, UniProt P05556+P13612)
- Sequence (P13612 whole entry, one chain of several): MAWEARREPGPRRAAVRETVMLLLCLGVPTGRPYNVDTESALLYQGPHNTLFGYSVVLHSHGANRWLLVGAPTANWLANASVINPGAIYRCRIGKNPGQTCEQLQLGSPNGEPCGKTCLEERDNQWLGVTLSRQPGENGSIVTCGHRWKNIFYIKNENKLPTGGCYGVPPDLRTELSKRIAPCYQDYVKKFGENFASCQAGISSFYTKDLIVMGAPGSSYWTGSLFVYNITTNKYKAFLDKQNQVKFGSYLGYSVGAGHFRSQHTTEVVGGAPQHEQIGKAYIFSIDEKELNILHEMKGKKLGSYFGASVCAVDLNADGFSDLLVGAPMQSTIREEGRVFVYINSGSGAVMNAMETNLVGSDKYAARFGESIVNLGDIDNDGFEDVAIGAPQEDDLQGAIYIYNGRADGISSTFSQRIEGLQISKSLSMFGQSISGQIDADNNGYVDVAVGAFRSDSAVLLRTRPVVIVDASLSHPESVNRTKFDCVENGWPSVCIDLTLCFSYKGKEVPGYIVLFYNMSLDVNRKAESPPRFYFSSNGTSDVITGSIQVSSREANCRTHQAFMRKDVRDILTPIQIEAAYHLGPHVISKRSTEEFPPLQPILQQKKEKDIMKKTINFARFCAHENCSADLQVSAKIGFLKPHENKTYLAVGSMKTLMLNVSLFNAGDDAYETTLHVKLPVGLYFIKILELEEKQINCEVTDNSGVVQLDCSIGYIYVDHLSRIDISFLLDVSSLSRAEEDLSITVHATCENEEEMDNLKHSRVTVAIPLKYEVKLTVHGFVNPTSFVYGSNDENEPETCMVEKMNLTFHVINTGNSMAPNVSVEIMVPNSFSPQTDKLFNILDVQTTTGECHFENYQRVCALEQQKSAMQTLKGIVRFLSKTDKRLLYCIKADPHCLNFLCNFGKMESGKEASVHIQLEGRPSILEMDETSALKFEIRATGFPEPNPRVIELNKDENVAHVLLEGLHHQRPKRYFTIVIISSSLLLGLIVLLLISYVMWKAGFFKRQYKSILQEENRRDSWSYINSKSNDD
- test description: inhibition of LDV ligand binding to VLA-4 – cell-based, LDV-FITC binding, flow cytometry, dose response (AID 702)
property measured: log10 of EC50 (log10 of the value in µM)

In [3]: df
Out[3]:
                                   compound                            assayed_target  property_measured  observed_result
0      COc1cccc2sc(Nc3nc(-c4ccccn4)cs3)nc12  Integrin alpha-4 (Homo sapiens, UniProt P05556+P13612)      log10 of EC50             0.83
1  O=c1c(CC[S+]([O-])c2ccccc2)c(O)n(-c2ccccc2)n1-c1ccccc1 (stereo unspecified)  Integrin alpha-4 (Homo sapiens, UniProt P05556+P13612)      log10 of EC50             1.24
2  CC(N=O)C(=O)NCc1ccccn1 (stereo unspecified)  Integrin alpha-4 (Homo sapiens, UniProt P05556+P13612)      log10 of EC50            -1.05
3  COc1cccc(N2CCN(c3ncnc4c3[nH]c3ccc(F)cc34)CC2C)c1 (stereo unspecified)  Integrin alpha-4 (Homo sapiens, UniProt P05556+P13612)      log10 of EC50             0.94
4       COc1cccc2sc(Nc3nnc(-c4cccs4)o3)nc12  Integrin alpha-4 (Homo sapiens, UniProt P05556+P13612)      log10 of EC50             0.51
5           O=S(=O)(Nc1cccc2ncccc12)c1cccs1  Integrin alpha-4 (Homo sapiens, UniProt P05556+P13612)      log10 of EC50             1.06
6                Cc1ccc(C(=O)NCC(C)(C)O)cc1  Integrin alpha-4 (Homo sapiens, UniProt P05556+P13612)      log10 of EC50             0.37
7  COc1ccc(-c2nnc(Nc3nc4c(OC)cccc4s3)o2)c(OC)c1  Integrin alpha-4 (Homo sapiens, UniProt P05556+P13612)      log10 of EC50             0.45
8   COc1cccc2sc(Nc3nnc(-c4ccc(F)cc4)o3)nc12  Integrin alpha-4 (Homo sapiens, UniProt P05556+P13612)      log10 of EC50             0.78
9    CCCCc1c(O)n(-c2ccccc2)n(-c2ccccc2)c1=O  Integrin alpha-4 (Homo sapiens, UniProt P05556+P13612)      log10 of EC50             0.03
